meta.source: patent US4396613A

System: Staphylococcus aureus
Assay: conventional broth-dilution microtiter test (MIC)
Assay type: cell-based
Conditions: unit assumed
Protocol: The MIC's in Table II were determined by standard agar-dilution assays. The MIC's in Table III were obtained using a conventional broth-dilution microtiter test.
// MIC lookup, one value per entry
The figure you give is taken to be in µg/mL; do not add the unit.

compound: CCC1OC(=O)CC(O)C(C)C(OC2OC(C)C(OC3CC(C)(O)C(O)C(C)O3)C(N(C)C)C2O)C(CC=O)CC(C)C(=O)C=CC(C)=CC1COC(=O)Cc1ccccc1 (stereo not drawn)
study_target: Staphylococcus aureus
MIC (µg/mL): 0.78
//
compound: CCC1OC(=O)CC(O)C(C)C(OC2OC(C)C(OC3CC(C)(O)C(O)C(C)O3)C(N(C)C)C2OC(C)=O)C(CC=O)CC(C)C(=O)C=CC(C)=CC1COC(=O)Cc1ccc([N+](=O)[O-])cc1 (stereo not drawn)
study_target: Staphylococcus aureus
MIC (µg/mL): 1.56

Okay, next one:
IN: // query MIC value for entry CCC1OC(=O)CC(O)C(C)C(OC2OC(C)C(OC3CC(C)(O)C(O)C(C)O3)C(N(C)C)C2OC(C)=O)C(CC=O)CC(C)C(=O)C=CC(C)=CC1COC(C)=O (stereo not drawn)
OUT: 0.78

###

tested on: Haemophilus influenzae Holt; test: standard agar-dilution assay (MIC); type: cell-based; conditions: ampicillin-sensitive strain, unit assumed
property_name: MIC (µg/mL)
Write the answer as a number in µg/mL, unit excluded.

Here's what some known entries look like.
molecule: CCC1OC(=O)CC(O)C(C)C(OC2OC(C)C(OC3CC(C)(O)C(O)C(C)O3)C(N(C)C)C2O)C(CC=O)CC(C)C(=O)C=CC(C)=CC1COC(=O)N1CCC(O)CC1 (centres unmarked) [Compound 28]
quantitative_result: 8
--
molecule: CCC1OC(=O)CC(O)C(C)C(OC2OC(C)C(OC3CC(C)(O)C(O)C(C)O3)C(N(C)C)C2O)C(CC=O)CC(C)C(=O)C=CC(C)=CC1COC(=O)NCCCO (centres unmarked) [Compound 26]
quantitative_result: 16
--
molecule: CCC1OC(=O)CC(O)C(C)C(OC2OC(C)C(OC3CC(C)(O)C(O)C(C)O3)C(N(C)C)C2O)C(CC=O)CC(C)C(=O)C=CC(C)=CC1COC(=O)Cc1ccccc1 (centres unmarked) [Compound 10, 23-O-Phenylacetyl-DMT]
quantitative_result: 2

Please find the next molecule below.
IN: Requested read-out: MIC. Entry: CCC1OC(=O)CC(O)C(C)C(OC2OC(C)C(OC3CC(C)(O)C(O)C(C)O3)C(N(C)C)C2OC(C)=O)C(CC=O)CC(C)C(=O)C=CC(C)=CC1COC(=O)COc1ccccc1 (centres unmarked) [Compound 12, 2'-O-Acetyl-23-O-phenoxyacetyl-DMT]
OUT: 16

###

test system: Streptococcus Group D X66
property_name: MIC (mg/L)
Provide only the numeric value, understood in mg/L.

Reference set, count: 5
compound: CCC(=O)OCC1C=C(C)C=CC(=O)C(C)CC(CC=O)C(OC2OC(C)C(OC3CC(C)(O)C(O)C(C)O3)C(N(C)C)C2OC(=O)CC)C(C)C(O)CC(=O)OC1CC (stereo not drawn)
MIC [mg/L]: 1
--
compound: CCC(=O)OC1C(OC2C(CC=O)CC(C)C(=O)C=CC(C)=CC(COC(C)=O)C(CC)OC(=O)CC(O)C2C)OC(C)C(OC2CC(C)(O)C(O)C(C)O2)C1N(C)C (stereo not drawn)
MIC [mg/L]: 1
--
compound: CCC(=O)OCC1C=C(C)C=CC(=O)C(C)CC(CC=O)C(OC2OC(C)C(OC3CC(C)(O)C(O)C(C)O3)C(N(C)C)C2O)C(C)C(O)CC(=O)OC1CC (stereo not drawn)
MIC [mg/L]: 1
--
compound: CCC1OC(=O)CC(O)C(C)C(OC2OC(C)C(OC3CC(C)(O)C(O)C(C)O3)C(N(C)C)C2O)C(CC=O)CC(C)C(=O)C=CC(C)=CC1COC(=O)NCCN1CCOCC1 (stereo not drawn)
MIC [mg/L]: 2
--
compound: CCCCCCCC(=O)OCC1C=C(C)C=CC(=O)C(C)CC(CC=O)C(OC2OC(C)C(OC3CC(C)(O)C(O)C(C)O3)C(N(C)C)C2OC(C)=O)C(C)C(O)CC(=O)OC1CC (stereo not drawn)
MIC [mg/L]: 2

IN: Reported MIC, compound CCC1OC(=O)CC(O)C(C)C(OC2OC(C)C(OC3CC(C)(O)C(O)C(C)O3)C(N(C)C)C2OC(C)=O)C(CC=O)CC(C)C(=O)C=CC(C)=CC1COC(=O)NCc1ccccc1 (stereo not drawn) : ____
OUT: 0.5

IN: What does the data say about its MIC? Entry: CCC1OC(=O)CC(O)C(C)C(OC2OC(C)C(OC3CC(C)(O)C(O)C(C)O3)C(N(C)C)C2OC(C)=O)C(CC=O)CC(C)C(=O)C=CC(C)=CC1COC(=O)CCc1ccccc1 (stereo not drawn)
OUT: 0.5

IN: Which MIC value belongs to CCC1OC(=O)CC(O)C(C)C(OC2OC(C)C(OC3CC(C)(O)C(O)C(C)O3)C(N(C)C)C2O)C(CC=O)CC(C)C(=O)C=CC(C)=CC1COC(=O)N1CCC(O)CC1 (stereo not drawn) ?
OUT: 1

IN: Quick one: MIC for CCC1OC(=O)CC(O)C(C)C(OC2OC(C)C(OC3CC(C)(O)C(O)C(C)O3)C(N(C)C)C2OC(C)=O)C(CC=O)CC(C)C(=O)C=CC(C)=CC1COC(=O)C12CC3CC(CC(C3)C1)C2 (stereo not drawn) ?
OUT: 4

IN: // query MIC value for entry CCC1OC(=O)CC(O)C(C)C(OC2OC(C)C(OC3CC(C)(O)C(O)C(C)O3)C(N(C)C)C2OC(=O)Cc2ccccc2)C(CC=O)CC(C)C(=O)C=CC(C)=CC1COC(=O)Cc1ccccc1 (stereo not drawn)
OUT: 1

IN: Quick one: MIC of CCC1OC(=O)CC(O)C(C)C(OC2OC(C)C(OC3CC(C)(O)C(O)C(C)O3)C(N(C)C)C2OC(C)=O)C(CC=O)CC(C)C(=O)C=CC(C)=CC1COC(=O)Cc1cc(OC)ccc1OC (stereo not drawn) ?
OUT: 0.5

IN: What value of measured MIC is listed for CCC1OC(=O)CC(O)C(C)C(OC2OC(C)C(OC3CC(C)(O)C(O)C(C)O3)C(N(C)C)C2OC(C)=O)C(CC=O)CC(C)C(=O)C=CC(C)=CC1COC(=O)C(C)(C)C (stereo not drawn) ?
OUT: 0.5

IN: Which MIC is listed for CCC1OC(=O)CC(O)C(C)C(OC2OC(C)C(OC3CC(C)(O)C(O)C(C)O3)C(N(C)C)C2OC(C)=O)C(CC=O)CC(C)C(=O)C=CC(C)=CC1COC(C)=O (stereo not drawn) ?
OUT: 2

IN: I would be grateful if you could share the reported MIC for CCC1OC(=O)CC(O)C(C)C(OC2OC(C)C(OC3CC(C)(O)C(O)C(C)O3)C(N(C)C)C2OC(C)=O)C(CC=O)CC(C)C(=O)C=CC(C)=CC1COC(=O)C=Cc1ccccc1 (stereo not drawn) .
OUT: 2

IN: Look up MIC for this compound: CCC1OC(=O)CC(O)C(C)C(OC2OC(C)C(OC3CC(C)(O)C(O)C(C)O3)C(N(C)C)C2OC(C)=O)C(CC=O)CC(C)C(=O)C=CC(C)=CC1COC(=O)Cc1ccccc1 (stereo not drawn)
OUT: 0.5
